molecular target: Carbonic anhydrase 12 (Homo sapiens)
Sequence (O43570 whole entry): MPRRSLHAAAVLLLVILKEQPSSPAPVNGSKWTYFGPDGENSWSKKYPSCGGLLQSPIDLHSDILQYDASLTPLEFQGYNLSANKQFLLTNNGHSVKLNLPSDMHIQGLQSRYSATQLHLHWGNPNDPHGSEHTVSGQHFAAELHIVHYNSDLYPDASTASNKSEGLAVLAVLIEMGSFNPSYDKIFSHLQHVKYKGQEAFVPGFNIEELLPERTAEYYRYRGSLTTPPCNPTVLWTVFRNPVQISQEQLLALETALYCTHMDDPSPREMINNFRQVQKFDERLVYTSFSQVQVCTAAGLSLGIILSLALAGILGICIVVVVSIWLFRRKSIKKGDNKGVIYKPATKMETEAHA
List of Ki values.
# value in nM; strip the unit string

Some solved cases for reference:
- compound: "NS(=O)(=O)c1nnc(NC(=O)[C@]23C[C@H]4C[C@H](C[C@H](C4)C2)C3)s1 [Investigational agent, 4]"
  measurementUnits: "nM"
  Ki: 0.9
- compound: "CC1(C)O[C@@H]2[C@@H](CC[C@@]3(COS(N)(=O)=O)OC(C)(C)O[C@@H]23)O1"
  measurementUnits: "nM"
  Ki: 3.8

--- query ---
Enter Ki (test system Carbonic anhydrase 12 (Homo sapiens)) for NS(=O)(=O)c1nnc(NC(=O)N[C@]23C[C@H]4C[C@H](C[C@H](C4)C2)C3)s1 [Investigational agent, 5]
4.7
